Test: Volume of distribution of compound was determined in dog
Details: in vivo

molecule: O=C(N[C@@H](Cc1ccccc1)[C@@H](O)CC(C(=O)NO)C1CCC(F)(F)CC1)c1cnc2ccccc2n1 (stereo partly specified)
Vd [L/kg]: 1.3

----------
Some molecules, each annotated with its measured CL (mL.min-1.kg-1).
Species on record: Homo sapiens
Settings: Liver, Microsome
Description: In vitro oxidative metabolic stability measured by the rate of drug consumption in human liver microsomes as intrinsic clearance values

molecule: CN1CCN(C(=O)C(CCC(C)(C)F)C[C@H](O)[C@H](Cc2ccccc2)NC(=O)c2cnc3ccccc3n2)CC1 (stereo partly drawn)
CL (mL.min-1.kg-1): 647
--
molecule: CC(C)(O)CCC(C[C@H](O)[C@H](Cc1ccccc1F)NC(=O)c1cnc2ccccc2n1)C(N)=O (stereo partly drawn)
CL (mL.min-1.kg-1): 16.5
--
molecule: NC(=O)C(C[C@H](O)[C@H](Cc1ccccc1)NC(=O)c1cnc2ccccc2n1)C1CCCCC1 (stereo partly drawn)
CL (mL.min-1.kg-1): 242
--
molecule: NC(=O)C(C[C@H](O)[C@H](Cc1ccccc1)NC(=O)c1cnc2ccccc2n1)C1(O)CCC(F)(F)CC1 (stereo partly drawn)
CL (mL.min-1.kg-1): 6.4
--
molecule: O=C(N[C@@H](Cc1ccccc1)[C@@H](O)CC(C(=O)NO)C1CCC(F)(F)CC1)c1cnc2ccccc2n1 (stereo partly drawn)
CL (mL.min-1.kg-1): 6.1
--
molecule: NC(=O)C(C[C@H](O)[C@H](Cc1ccccc1)NC(=O)c1cnc2ccccc2n1)C1(O)CCCCC1 (stereo partly drawn)
CL (mL.min-1.kg-1): 47.7
--
molecule: CC(C)(F)CCC(C[C@H](O)[C@H](Cc1ccccc1)NC(=O)c1cnc2ccccc2n1)C(=O)NN (stereo partly drawn)
CL (mL.min-1.kg-1): 32.7
--
molecule: CC(C)(O)CC[C@H](C[C@H](O)[C@H](Cc1ccccc1)NC(=O)c1cnc2ccccc2n1)C(N)=O
CL (mL.min-1.kg-1): 4.9

----------
Test: Volume of distribution of compound was determined in monkey
Details: cercopithecidae, in vivo

compound: O=C(N[C@@H](Cc1ccccc1)[C@@H](O)CC(C(=O)NO)C1CCC(F)(F)CC1)c1cnc2ccccc2n1 (stereo partly specified)
Vd: 1.8 L/kg

----------
Test: Plasma clearance of compound was determined in monkey
Details: cercopithecidae
observation-type: clearance (mL/min/kg)

compound: O=C(N[C@@H](Cc1ccccc1)[C@@H](O)CC(C(=O)NO)C1CCC(F)(F)CC1)c1cnc2ccccc2n1 (stereo partly specified)
quantitative-result: 33

----------
Molecular target: C-C chemokine receptor type 1 (Homo sapiens, UniProt P32246)
Sequence (P32246 whole entry): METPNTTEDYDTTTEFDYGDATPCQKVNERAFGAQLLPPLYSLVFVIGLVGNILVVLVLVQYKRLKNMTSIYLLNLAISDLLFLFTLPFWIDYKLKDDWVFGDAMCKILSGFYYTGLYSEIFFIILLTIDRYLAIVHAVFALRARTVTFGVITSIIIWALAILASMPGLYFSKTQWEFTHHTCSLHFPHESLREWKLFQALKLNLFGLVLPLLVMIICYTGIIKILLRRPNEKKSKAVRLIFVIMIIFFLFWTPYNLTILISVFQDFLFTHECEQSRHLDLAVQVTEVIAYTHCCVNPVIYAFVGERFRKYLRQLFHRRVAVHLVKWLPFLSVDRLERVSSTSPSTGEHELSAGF
observation-type: IC50 (nM)

compound: NC(=O)C(C[C@H](O)[C@H](Cc1ccccc1)NC(=O)c1cnc2ccccc2n1)C1CCCCC1 (stereo not given in full)
observation-type: IC50
endpoint-unit: nM
quantitative-result: 8

compound: CN1CCN(C(=O)C(CCC(C)(C)F)C[C@H](O)[C@H](Cc2ccccc2)NC(=O)c2cnc3ccccc3n2)CC1 (stereo not given in full)
observation-type: IC50
endpoint-unit: nM
quantitative-result: 5600

compound: CC(C)(F)CCC(C[C@H](O)[C@H](Cc1ccccc1)NC(=O)c1cnc2ccccc2n1)C(=O)N1CCCC1 (stereo not given in full)
observation-type: IC50
endpoint-unit: nM
quantitative-result: 2320

compound: CC(C)(F)CCC(C[C@H](O)[C@H](Cc1ccccc1)NC(=O)c1cnc2ccccc2n1)C(=O)NN (stereo not given in full)
observation-type: IC50
endpoint-unit: nM
quantitative-result: 7

compound: NC(=O)C(C[C@H](O)[C@H](Cc1ccccc1)NC(=O)c1cnc2ccccc2n1)C1CCOCC1 (stereo not given in full)
observation-type: IC50
endpoint-unit: nM
quantitative-result: 3460

----------
Experiment: Plasma clearance of compound was determined in dog

molecule: O=C(N[C@@H](Cc1ccccc1)[C@@H](O)CC(C(=O)NO)C1CCC(F)(F)CC1)c1cnc2ccccc2n1 (stereo partly specified)
clearance / mL/min/kg: 38

----------
Experiment: Aqueous solubility of compound was determined
observation-type: solubility (µg/mL)

compound: O=C(N[C@@H](Cc1ccccc1)[C@@H](O)CC(C(=O)NO)C1CCC(F)(F)CC1)c1cnc2ccccc2n1 (stereo partly specified)
observation-type: solubility
quantitative-result: 12

Measured values drawn from ChEMBL document CHEMBL1147552 for this set.
